Data origin, for the record: patent US8354400B2

# measurementTarget: human TLR9 (Homo sapiens, UniProt Q9NR96)
# Construct: expressed in transfected cells; host or cells: HEK293 (ATCC No. CRP-1573 [sic])
# Sequence (Q9NR96 26-1032): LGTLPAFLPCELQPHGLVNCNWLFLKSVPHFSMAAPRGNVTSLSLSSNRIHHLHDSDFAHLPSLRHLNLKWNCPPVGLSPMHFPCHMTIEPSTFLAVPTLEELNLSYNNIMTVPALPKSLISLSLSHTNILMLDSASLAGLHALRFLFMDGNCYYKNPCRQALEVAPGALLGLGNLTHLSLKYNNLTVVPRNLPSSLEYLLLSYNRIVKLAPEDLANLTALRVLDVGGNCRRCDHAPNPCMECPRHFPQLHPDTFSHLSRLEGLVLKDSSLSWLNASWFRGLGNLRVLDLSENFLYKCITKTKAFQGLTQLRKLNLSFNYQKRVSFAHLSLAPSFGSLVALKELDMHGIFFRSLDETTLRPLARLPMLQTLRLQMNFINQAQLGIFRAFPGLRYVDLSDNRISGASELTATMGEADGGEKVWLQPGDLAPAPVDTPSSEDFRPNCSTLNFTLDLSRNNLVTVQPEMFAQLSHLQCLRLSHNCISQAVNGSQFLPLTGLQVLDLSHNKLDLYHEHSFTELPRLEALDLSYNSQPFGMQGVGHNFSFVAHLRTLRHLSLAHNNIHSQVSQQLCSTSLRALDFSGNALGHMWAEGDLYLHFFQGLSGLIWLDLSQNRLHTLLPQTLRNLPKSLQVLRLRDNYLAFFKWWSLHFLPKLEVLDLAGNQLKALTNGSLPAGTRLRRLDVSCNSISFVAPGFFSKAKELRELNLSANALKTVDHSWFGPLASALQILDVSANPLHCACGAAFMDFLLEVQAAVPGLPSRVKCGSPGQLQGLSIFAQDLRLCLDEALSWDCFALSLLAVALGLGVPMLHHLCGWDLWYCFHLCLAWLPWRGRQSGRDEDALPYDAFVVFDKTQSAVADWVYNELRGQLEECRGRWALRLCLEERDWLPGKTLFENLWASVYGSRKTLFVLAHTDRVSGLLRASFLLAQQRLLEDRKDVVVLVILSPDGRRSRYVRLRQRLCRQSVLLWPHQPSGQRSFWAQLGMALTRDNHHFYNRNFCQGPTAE
# measurementProtocol: Primary assay: HEK/TLR9 activation (NF-kB luciferase reporter, Oligo CpG 2006 stimulation)
# Format: cell-based
# setupConditions: HEK293 transfected with human TLR9 and NF-kB luciferase; compound 30 min before Oligo CpG 2006; overnight; read-out: HEK/TLR9 IC50
pIC50: −log10 of the molar value.
Would you mind labelling by pIC50? At or over 8 is yes, under is no.

| structureSmiles | labelClass |
| --- | --- |
| CCN(CC)CCNCCCOc1ccc(-c2nc3ccc(OCCCNCCN(CC)CC)cc3o2)cc1 | yes |
| COC[C@@H]1CCCN1CCCOc1ccc(-c2nc3ccc(OCCCN4CCC[C@H]4COC)cc3o2)cc1 | no |
| CN(C)CCOCCN(C)CCCOc1ccc(-c2nc3ccc(OCCCN(C)CCOCCN(C)C)cc3o2)cc1 | no |
| CN(C)CCOc1ccc(-c2nc3ccc(OCCN(C)C)cc3o2)cc1 | no |
| CN(C)CCCOc1ccc2nc(-c3ccc(OCCCN(C)CCCN(C)C)cc3)oc2c1 | yes |
| CN(C)[C@@H]1CCN(CCCOc2ccc(-c3nc4ccc(OCCCN5CC[C@@H](N(C)C)C5)cc4o3)cc2)C1 | yes |
| CN(C)CCCCN(C)CCCOc1ccc(-c2nc3ccc(OCCCN(C)CCCCN(C)C)cc3o2)cc1 | no |
| CN(C)CCCOc1ccc2nc(-c3ccc(OCCCN(C)CCOCCOCCN(C)C)cc3)oc2c1 | no |
| CCOCCN1CCN(CCCOc2ccc(-c3nc4ccc(OCCCN5CCN(CCOCC)CC5)cc4o3)cc2)CC1 | no |
| CN(C)CCCNCCCOc1ccc(-c2nc3ccc(OCCCNCCCN(C)C)cc3o2)cc1 | no |

###

# key: entry, value: pIC50
# measurementTarget: human TLR9 (Homo sapiens)
# Construct: expressed in transfected cells; host or cells: HEK293 (ATCC No. CRP-1573 [sic])
# measurementProtocol: Primary assay: HEK/TLR9 activation (NF-kB luciferase reporter, Oligo CpG 2006 stimulation)
# Format: cell-based
# setupConditions: HEK293 transfected with human TLR9 and NF-kB luciferase; compound 30 min before Oligo CpG 2006; overnight; read-out: HEK/TLR9 IC50
pIC50: −log10 of the molar value.
measuredProperty: pIC50

| structureSmiles | measuredProperty | numericReadout |
| --- | --- | --- |
| c1cc(-c2nc3ccc(OCCCN4CCCC4)cc3o2)ccc1OCCCN1CCCC1 | pIC50 | 7.95 |
| CC(C)(CN1CCOCC1)NCCCOc1ccc(-c2nc3ccc(OCCCNC(C)(C)CN4CCOCC4)cc3o2)cc1 | pIC50 | 7.82 |
| c1cc(-c2nc3ccc(OCCCN4CCC[C@H]4CN4CCCC4)cc3o2)ccc1OCCCN1CCC[C@H]1CN1CCCC1 | pIC50 | 8.19 |
| CCN(CC)CCN(C)CCCOc1ccc(-c2nc3ccc(OCCCN(C)CCN(CC)CC)cc3o2)cc1 | pIC50 | 8.14 |
| c1cc(CN2CCOCC2)ccc1CNCCCOc1ccc(-c2nc3ccc(OCCCNCc4ccc(CN5CCOCC5)cc4)cc3o2)cc1 | pIC50 | 8.15 |
| CN(C)CCCOc1cccc(-c2nc3ccc(OCCCN(C)C)cc3o2)c1 | pIC50 | 7.96 |
| COC[C@H]1CCCN1CCCOc1ccc(-c2nc3ccc(OCCCN4CCC[C@@H]4COC)cc3o2)cc1 | pIC50 | 7.91 |
| C1=CCN(CCCOc2ccc(-c3nc4ccc(OCCCN5CC=CCC5)cc4o3)cc2)CC1 | pIC50 | 7.90 |
| CN(C)CCCOc1ccc2nc(-c3ccccc3OCCCN(C)C)oc2c1 | pIC50 | 7.92 |
